System: SK-MEL-28 melanoma
Assay: NCI tumour cell line growth inhibition, 48 h
recorded-metric: TGI

Ask: Would you kindly share the measured TGI for CCOC(=O)NC(=O)c1cn(-c2ccc(CCOC(=O)NCCCCCCNC(=O)OCCc3ccc(-n4c(=O)[nH]cc(C(=O)NC(=O)OCC)c4=O)cc3)cc2)c(=O)[nH]c1=O ?
Result: > 100 µM

Ask: Could you tell me which TGI is on file for CN=C(NC#N)N(Cc1ccccc1)Cc1ccccc1 ?
Result: > 100 µM

Ask: Quick check: TGI of CCN(CC)CCn1c(=O)c2ccccc2n2c3c(=O)n(C)c(=O)n(C)c3nc12 ?
Result: 18.3 µM

Ask: Requested field: TGI. Item: COC(=O)c1sc(=O)n(-c2ccccc2)c1SCc1ccccc1
Result: > 100 µM

Ask: GET /values?readout=TGI&item= CCCn1c2c(c3ccccc3c1=O)C(=O)c1cc3c(cc1-2)OCO3
Result: > 100 µM
